Kindly supply the reported Ki values for the records listed here.
biological target: UniProt:P18089; experiment: Radioligand binding ([3H]rauwolscine) in CHO cells expressing human α2B-AR; settings: CHO cells
Sequence (P18089 whole entry): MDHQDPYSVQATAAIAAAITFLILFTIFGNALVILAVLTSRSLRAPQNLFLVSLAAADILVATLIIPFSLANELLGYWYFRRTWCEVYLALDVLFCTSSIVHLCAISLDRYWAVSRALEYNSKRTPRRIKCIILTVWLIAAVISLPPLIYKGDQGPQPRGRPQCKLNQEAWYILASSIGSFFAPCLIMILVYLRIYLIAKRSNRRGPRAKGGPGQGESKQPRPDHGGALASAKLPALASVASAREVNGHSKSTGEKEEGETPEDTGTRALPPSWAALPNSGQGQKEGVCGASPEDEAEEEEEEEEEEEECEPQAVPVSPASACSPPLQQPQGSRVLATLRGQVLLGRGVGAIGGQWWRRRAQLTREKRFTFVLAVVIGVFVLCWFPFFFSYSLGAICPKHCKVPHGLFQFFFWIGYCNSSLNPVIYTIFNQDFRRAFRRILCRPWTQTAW
The figure you give is taken to be in nM; do not add the unit.

GET /values?readout=Ki&item= "O=C(O)[C@@H]1[C@H]2C[C@H]3c4[nH]c5ccccc5c4CCN3C[C@@H]2CC[C@@H]1O" 13.4

O=C(NCCCNC(=O)C1C(O)CCC2CN3CCc4c([nH]c5ccccc45)C3CC21)C1C(O)CCC2CN3CCc4c([nH]c5ccccc45)C3CC21 (centres unmarked) ? 602

---

system: mouse cremaster muscle; test: Ex vivo mouse cremaster muscle vasoconstriction model; settings: Mus musculus, 25° C.; read-out: EC50 (vasoconstriction concentration-response)
assay_endpoint: EC50
Record the result as a number with its unit.

GET /values?readout=EC50&item= Cc1cccc(C(C)c2cnc[nH]2)c1C (stereo not shown) 2.15 nM

---

Target: UniProt:P08913
Sequence (P08913 1-465): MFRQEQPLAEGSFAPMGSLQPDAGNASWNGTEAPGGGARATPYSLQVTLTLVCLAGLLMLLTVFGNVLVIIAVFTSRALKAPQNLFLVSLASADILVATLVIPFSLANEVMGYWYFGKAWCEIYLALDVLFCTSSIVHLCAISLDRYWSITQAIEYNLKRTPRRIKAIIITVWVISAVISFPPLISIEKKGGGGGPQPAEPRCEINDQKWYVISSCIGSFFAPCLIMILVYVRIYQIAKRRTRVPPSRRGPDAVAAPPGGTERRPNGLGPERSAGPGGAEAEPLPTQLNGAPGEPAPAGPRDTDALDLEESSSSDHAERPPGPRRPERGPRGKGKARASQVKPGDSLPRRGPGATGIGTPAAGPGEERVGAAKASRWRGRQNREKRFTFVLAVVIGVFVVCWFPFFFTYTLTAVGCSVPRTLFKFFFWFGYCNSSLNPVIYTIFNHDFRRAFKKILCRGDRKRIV
Experiment: Radioligand binding ([3H]rauwolscine) in CHO cells expressing human α2A-AR
Settings: CHO cells
assay_endpoint: pKi
In plain terms, pKi is the concentration in mol/L turned into minus its base-10 logarithm.

GET /values?readout=pKi&item= "O=C(O)[C@@H]1[C@H]2C[C@H]3c4[nH]c5ccccc5c4CCN3C[C@@H]2CC[C@@H]1O" 6.21

O=C(NCCCNC(=O)C1C(O)CCC2CN3CCc4c([nH]c5ccccc45)C3CC21)C1C(O)CCC2CN3CCc4c([nH]c5ccccc45)C3CC21 (centres unmarked) ? 6.80

Data provenance: patent US7470703B1
